The reported measurements were obtained from patent US9163008B2.

# Test Target: hNav1.7 (Homo sapiens (Human))
# Sequence (Q15858 other isoform, or with tags, fused parts or gaps): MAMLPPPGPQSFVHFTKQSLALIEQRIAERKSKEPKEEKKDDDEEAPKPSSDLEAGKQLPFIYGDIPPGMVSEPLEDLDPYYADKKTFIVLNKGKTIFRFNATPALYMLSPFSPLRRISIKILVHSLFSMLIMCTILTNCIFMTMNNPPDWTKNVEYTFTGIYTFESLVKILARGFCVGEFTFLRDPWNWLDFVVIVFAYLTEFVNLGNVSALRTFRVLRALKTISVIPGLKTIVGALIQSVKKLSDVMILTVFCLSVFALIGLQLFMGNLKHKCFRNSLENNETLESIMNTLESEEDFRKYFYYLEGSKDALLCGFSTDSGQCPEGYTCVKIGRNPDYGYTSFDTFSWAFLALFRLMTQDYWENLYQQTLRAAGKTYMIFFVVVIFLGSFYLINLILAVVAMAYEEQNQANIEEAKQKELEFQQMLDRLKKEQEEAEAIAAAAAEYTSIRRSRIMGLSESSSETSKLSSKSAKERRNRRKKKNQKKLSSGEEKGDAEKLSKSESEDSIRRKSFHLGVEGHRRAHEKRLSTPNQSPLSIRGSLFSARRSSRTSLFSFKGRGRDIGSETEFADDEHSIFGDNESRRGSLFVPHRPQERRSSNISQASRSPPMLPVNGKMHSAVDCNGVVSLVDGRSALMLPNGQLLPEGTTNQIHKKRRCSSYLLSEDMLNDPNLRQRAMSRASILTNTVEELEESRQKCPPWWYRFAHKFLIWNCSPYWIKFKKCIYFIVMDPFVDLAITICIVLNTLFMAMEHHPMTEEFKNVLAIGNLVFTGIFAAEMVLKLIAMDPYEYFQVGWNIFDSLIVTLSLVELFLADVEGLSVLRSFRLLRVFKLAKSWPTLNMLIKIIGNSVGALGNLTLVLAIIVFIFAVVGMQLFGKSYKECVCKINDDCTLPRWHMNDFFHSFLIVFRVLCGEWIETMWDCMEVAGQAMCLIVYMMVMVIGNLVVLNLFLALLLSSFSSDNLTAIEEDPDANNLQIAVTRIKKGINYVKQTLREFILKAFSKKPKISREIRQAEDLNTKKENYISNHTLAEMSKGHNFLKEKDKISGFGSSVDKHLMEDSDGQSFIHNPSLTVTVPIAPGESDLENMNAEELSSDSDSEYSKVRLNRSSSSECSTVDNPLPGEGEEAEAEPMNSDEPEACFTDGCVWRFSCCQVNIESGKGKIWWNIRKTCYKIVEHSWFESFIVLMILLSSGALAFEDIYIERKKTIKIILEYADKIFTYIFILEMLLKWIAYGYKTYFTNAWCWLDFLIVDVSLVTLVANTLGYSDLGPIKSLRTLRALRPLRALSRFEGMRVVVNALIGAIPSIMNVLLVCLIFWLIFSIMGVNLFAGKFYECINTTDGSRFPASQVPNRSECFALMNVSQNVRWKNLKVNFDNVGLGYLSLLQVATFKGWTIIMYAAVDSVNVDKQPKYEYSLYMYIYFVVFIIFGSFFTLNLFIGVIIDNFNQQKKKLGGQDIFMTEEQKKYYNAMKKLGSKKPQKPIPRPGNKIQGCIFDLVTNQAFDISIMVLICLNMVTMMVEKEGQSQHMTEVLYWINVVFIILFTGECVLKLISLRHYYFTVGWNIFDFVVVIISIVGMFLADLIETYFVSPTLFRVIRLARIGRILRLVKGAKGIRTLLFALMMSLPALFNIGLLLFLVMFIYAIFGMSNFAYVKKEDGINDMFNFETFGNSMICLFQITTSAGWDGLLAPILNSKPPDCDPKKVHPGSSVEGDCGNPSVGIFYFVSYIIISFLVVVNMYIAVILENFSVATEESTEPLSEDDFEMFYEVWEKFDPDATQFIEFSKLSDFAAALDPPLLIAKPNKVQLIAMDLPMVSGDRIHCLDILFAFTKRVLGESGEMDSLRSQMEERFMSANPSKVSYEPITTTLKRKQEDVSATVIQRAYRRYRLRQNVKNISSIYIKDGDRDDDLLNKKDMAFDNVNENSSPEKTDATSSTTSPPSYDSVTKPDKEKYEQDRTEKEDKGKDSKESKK
# Assay Summary: Electrophysiology (EP) whole-cell patch clamp assay
# Run Conditions: resting block dissociation constant; hNav1.7 HEK-293; read-out: Nav1.7 Activity EP assay Kr
Strictly below 8 µM in Kd: Yes. Otherwise: No.

| Smiles Record | Category Label |
| --- | --- |
| C[C@H](Nc1cc(C(N)=O)nc(-c2ccc(Oc3ccc(F)cc3)cc2)n1)C(N)=O | Yes |
| C[C@H](Nc1cc(C(N)=O)nc(-c2ccc(Oc3ccc(Cl)cn3)cc2)n1)C(N)=O | No |
| C[C@@H](Nc1cc(C(N)=O)nc(-c2ccc(Oc3ccc(F)cc3)cc2)n1)C(N)=O | Yes |
| C[C@H](Nc1cc(C(=O)O)nc(-c2ccc(Oc3ccc(F)cc3)cc2)n1)C(N)=O | No |
| C[C@H](Nc1cc(C(N)=O)nc(-c2ccc(Oc3ccc(C(F)(F)F)cn3)cc2)n1)C(N)=O | No |
| NC(=O)c1cc(N[C@H]2CCNC2=O)nc(-c2ccc(Oc3ccc(C(F)(F)F)cn3)cc2)n1 | Yes |
| C[C@H](Nc1cc(C(N)=O)nc(-c2ccc(Oc3ccc(Cl)cc3F)cc2)n1)C(N)=O | Yes |
| C[C@H](Nc1cc(C(=O)O)nc(-c2ccc(Oc3ccc(F)cc3)cc2)n1)C(=O)O | No |
